Target: Cytochrome P450 2C19 (Homo sapiens)
Experiment: Cytochrome panel assay with activity outcomes; as to activity, negative = inhibition: % is scaled to controls: 0 for no effect and ±100 for the full control effect
Settings: recombinant CYP, pro-luciferin dealkylation, luminescence, p450-cyp2c19; series mostly up to 57.1 µM
Among all 16,000 compounds or so, about 5,800 (36%) were called active. Another 23% or so got no clear call; they are omitted. The list shows a part of the results.
measurement_name: activity, negative = inhibition

>  <compound>
O=C(O)/C=C\c1ccc[c]([Sb](=[O])([OH])[OH])c1

>  <activity, negative = inhibition>
-11.2% [at 11.4 µM] (inactive)

$$$$
>  <compound>
O=C(O)[C@H]1[O][Sb][O][C@@H](C(=O)O)C1O (stereo not given in full)

>  <activity, negative = inhibition>
15.3% [at 11.4 µM] (inactive)

$$$$
>  <compound>
Cc1ccc(C2(c3ccc(C)c(O)c3C)CCN(C)CC2)c(C)c1O

>  <activity, negative = inhibition>
2.67% [at 11.4 µM] (inactive)

$$$$
>  <compound>
COc1cc(CCN)c(OC)c(OC)c1

>  <activity, negative = inhibition>
70.8% [at 11.4 µM] (inactive)

$$$$
>  <compound>
N[C@@H](Cc1cc(Br)c(O)c(Br)c1)C(=O)O

>  <activity, negative = inhibition>
11.6% [at 11.4 µM] (inactive)

$$$$

Working through the 4 compounds below one at a time, give activity, negative = inhibition for each.
1. CCC1=C(C[C@H]2NCCc3ccccc32)C[C@@H]2c3cc(OC)c(OC)cc3CCN2C1
2. CN(C)[C@@H]1C(=O)C(C(N)=O)=C(O)[C@]2(O)C(=O)C3=C(O)c4c(O)cccc4[C@](C)(O)[C@H]3C[C@@H]12
3. NCCc1ccc(S(=O)(=O)O)cc1[N+](=O)[O-]
4. CC1=C(CC[C@H](C)CO)O[C@@H]2C[C@@H]3[C@H]4CC[C@H]5C[C@@H](O)CC[C@]5(C)[C@@H]4CC(=O)[C@@]3(C)[C@@H]12

Out:
1: -23.2% [at 11.4 µM] (inactive); 2: -41.8% [at 11.4 µM] (inactive); 3: -6.86% [at 11.4 µM] (inactive); 4: -3.33% [at 11.4 µM] (inactive)

In: For Nc1nc(N)c(Cn2ccnc2)c(=O)[nH]1 , what is its reported activity, negative = inhibition?
Out: 32.7% [at 11.4 µM] (inactive)

###

Target: Cytochrome P450 2C19 (Homo sapiens)
Test: Cytochrome panel assay with activity outcomes
Settings: recombinant CYP, pro-luciferin dealkylation, luminescence, p450-cyp2c19; series mostly up to 57.1 µM
Description: The P450 gene superfamily is involved in the metabolism and clearance of xenobiotics. This assay used various human CYP P450 isozymes to measure the dealkylation of various pro-luciferin substrates to luciferin. The luciferin is then measured by luminescence after the addition of a luciferase detection reagent. […] Inhibitors and some substrates limit the production of luciferin, and decrease measured luminescence. […] 8, Detection, 1 sec, ViewLux luminescent read […]
The whole screen tested about 16,000 compounds, of which about 5,800 (36%) were called active. About 23% were inconclusive and are not listed. Calls come from the whole dose curve; as a rule, active = well fitted curve in the direction sought with a large enough effect; inconclusive = small, poorly fitted or top-dose-only effect, or effect the other way; inactive = no such curve, though single readings can be large or run the other way. Some of the results follow.
Hello, when you answer, please use one of the following outcomes: T = active, F = inactive

Look over these answered cases.
>  <molecule>
CCCCc1ccc(C(=O)O)nc1

>  <system_name>
Cytochrome P450 2C19 (Homo sapiens)

>  <answer_label>
F

$$$$
>  <molecule>
CCNC[C@H](O)c1cccc(O)c1

>  <system_name>
Cytochrome P450 2C19 (Homo sapiens)

>  <answer_label>
F

$$$$

In: Outcome logged for C1CCc2nnnn2CC1 in this assay:
Out: F

In: Test call for this molecule, please: CCOC(C(=O)OCCCN(CC)CC)(c1ccccc1)c1ccccc1
Out: F

In: What did this assay record as the result for Brc1c(NC2=NCCN2)ccc2nccnc12 ?
Out: F

###

Target: Cytochrome P450 2C19 (Homo sapiens)
Assay: Cytochrome panel assay with activity outcomes; as to activity, negative = inhibition: % is scaled to controls: 0 for no effect and ±100 for the full control effect
Settings: recombinant CYP, pro-luciferin dealkylation, luminescence, p450-cyp2c19; series mostly up to 57.1 µM
Hit rate of the full screen: of about 16,000 compounds, about 5,800 (36%) were called active. Another 23% or so got no clear call; they are omitted. The list shows a part of the results.
measurement_name: activity, negative = inhibition

>  <smiles_data>
O=C(C[C@H](c1ccccc1)c1c(O)c2ccccc2oc1=O)c1ccccc1

>  <activity, negative = inhibition>
-17.3% [at 11.4 µM] (inactive)

$$$$
>  <smiles_data>
CO[C@H]1[C@H](O)[C@H](O[C@@H]2[C@H](Oc3cccc4c(O)c5c(=O)oc6ccc(C)c7c(=O)oc(c34)c5c67)O[C@@H](C)[C@H](O)[C@H]2O)O[C@@H](C)[C@@H]1O

>  <activity, negative = inhibition>
22.4% [at 11.4 µM] (inactive)

$$$$
>  <smiles_data>
CCSCC[C@H](N)C(=O)O

>  <activity, negative = inhibition>
-18% [at 11.4 µM] (inactive)

$$$$

# return activity, negative = inhibition for each item in the list
1. CC(C)(C)C(=O)CP(=O)(O)O
2. c1ccc2c(c1)Sc1ccccc1N2C[C@H]1CN2CCC1CC2
3. NC[C@@H](O)CSP(=O)(O)O
4. CC(=O)[C@]1(O)CC[C@@H]2[C@H]3C[C@@H](C)C4=CC(=O)CC[C@@]4(C)[C@H]3[C@@H](O)C[C@]21C
5. Nc1ccccc1O.O.O=C(O)[C@H]1[O][Sb][O][C@H]1C(=O)O
6. C[C@H]1CC[C@@]2(NC1)O[C@@H]1C[C@@H]3[C@@H]4CC=C5C[C@@H](O)CC[C@]5(C)[C@@H]4CC[C@]3(C)[C@H]1[C@@H]2C

Out:
["34.5% [at 11.4 µM] (inactive)", "38.1% [at 11.4 µM] (inactive)", "8.63% [at 11.4 µM] (inactive)", "-31.5% [at 11.4 µM] (inactive)", "16.1% [at 11.4 µM] (inactive)", "15.9% [at 11.4 µM] (inactive)"]

###

Target: Cytochrome P450 2C19 (Homo sapiens)
Test: Cytochrome panel assay with activity outcomes
Conditions: recombinant CYP, pro-luciferin dealkylation, luminescence, p450-cyp2c19; series mostly up to 57.1 µM
Among all 16,000 compounds or so, about 5,800 (36%) were called active. Not shown: some 23% with an inconclusive outcome. The list shows a part of the results.
measurement_name: AC50

Examples with answers:
>  <smiles_data>
Cc1ccc(NC(=[OH+])c2cc3ccccc3cc2O)c(C)c1.Cc1ccc(NC(=[OH+])c2cc3ccccc3cc2O)c(C)c1.[Ni]

>  <system_name>
Cytochrome P450 2C19 (Homo sapiens)

>  <reported_value>
2000 nM (active)

$$$$
>  <smiles_data>
COc1cc2c(cc1O)C[C@H]1c3c(cc(O)c(OC)c3-2)CCN1C

>  <system_name>
Cytochrome P450 2C19 (Homo sapiens)

>  <reported_value>
inactive

$$$$
>  <smiles_data>
N[C@H](Cn1ccc(=O)[nH]c1=O)C(=O)O

>  <system_name>
Cytochrome P450 2C19 (Homo sapiens)

>  <reported_value>
inactive

$$$$
>  <smiles_data>
CC(=O)NBr

>  <system_name>
Cytochrome P450 2C19 (Homo sapiens)

>  <reported_value>
inactive

$$$$
>  <smiles_data>
CNCCc1cnc[nH]1

>  <system_name>
Cytochrome P450 2C19 (Homo sapiens)

>  <reported_value>
inactive

$$$$
>  <smiles_data>
NCC[C@H](O)C(=O)N[C@H]1C[C@@H](N)[C@@H](O[C@H]2O[C@@H](CN)[C@@H](O)[C@@H](O)[C@@H]2N)[C@@H](O[C@H]2O[C@@H](CO)[C@@H](O)[C@@H]2O)[C@@H]1O

>  <system_name>
Cytochrome P450 2C19 (Homo sapiens)

>  <reported_value>
inactive

$$$$
>  <smiles_data>
CC1=C2[C@@H]3OC(=O)[C@@H](C)[C@@H]3CC[C@]2(C)C=CC1=O

>  <system_name>
Cytochrome P450 2C19 (Homo sapiens)

>  <reported_value>
inactive

$$$$
>  <smiles_data>
c1ccc(CCCCN2CCC(c3ccccc3)CC2)cc1

>  <system_name>
Cytochrome P450 2C19 (Homo sapiens)

>  <reported_value>
15800 nM (active)

$$$$
>  <smiles_data>
O=C(Nc1ccc(C(F)(F)F)cc1)c1cccn(Cc2ccc3c(c2)OC(F)(F)O3)c1=O

>  <system_name>
Cytochrome P450 2C19 (Homo sapiens)

>  <reported_value>
3160 nM (active)

$$$$
>  <smiles_data>
C[C@](N)(CCP(=O)(O)O)C(=O)O

>  <system_name>
Cytochrome P450 2C19 (Homo sapiens)

>  <reported_value>
inactive

$$$$

Please give AC50 for each item listed below.
1. C[C@@]12CCC(=O)C=C1C=C[C@H]1[C@H]3CC[C@](O)(CCC(=O)O)[C@]3(C)CC[C@@H]12
2. CN1CCc2cccc(Cl)c2CC1
3. O=C(O)Cc1cccnc1C(=O)O
4. O=C(Nc1ccccc1)N1CC[C@@]2(CCCN(C(=O)Oc3ccccc3)C2)C1
5. CN(C)c1ccc(NC(=O)CN2C(=O)CN=C(c3ccccc3)c3ccccc32)cc1
6. CC1(C)N(O)C(c2ccc(C(=O)O)cc2)=[N+]([O-])C1(C)C

Out:
1. inactive
2. inactive
3. inactive
4. inactive
5. 2240 nM (active)
6. inactive
